Target: HLA-B*3501 (human)
Assay: inhibition of 125I probe peptide, purified HLA
Categories are defined by ranges of IC50, namely group 1 = under 300 nM, group 2 = from 300 nM up to 2000 nM, group 3 = 2000 nM and over

binder: FPWQRLLL [CEA.13.F1, 8 AA]
class-assignment: group 2
//
binder: FPQQHTQVLF [CEA.632.F1, 10 AA]
class-assignment: group 1
//
binder: FPGLSAGI [CEA.680.F1I8]
class-assignment: group 2

Enquiry: Kindly identify the class of FPVSPRLQI [CEA.363.F1I9] .
Return: group 3
